Target: Inhibitor of nuclear factor kappa-B kinase subunit alpha (Homo sapiens, UniProt O15111)
Sequence (O15111 whole entry): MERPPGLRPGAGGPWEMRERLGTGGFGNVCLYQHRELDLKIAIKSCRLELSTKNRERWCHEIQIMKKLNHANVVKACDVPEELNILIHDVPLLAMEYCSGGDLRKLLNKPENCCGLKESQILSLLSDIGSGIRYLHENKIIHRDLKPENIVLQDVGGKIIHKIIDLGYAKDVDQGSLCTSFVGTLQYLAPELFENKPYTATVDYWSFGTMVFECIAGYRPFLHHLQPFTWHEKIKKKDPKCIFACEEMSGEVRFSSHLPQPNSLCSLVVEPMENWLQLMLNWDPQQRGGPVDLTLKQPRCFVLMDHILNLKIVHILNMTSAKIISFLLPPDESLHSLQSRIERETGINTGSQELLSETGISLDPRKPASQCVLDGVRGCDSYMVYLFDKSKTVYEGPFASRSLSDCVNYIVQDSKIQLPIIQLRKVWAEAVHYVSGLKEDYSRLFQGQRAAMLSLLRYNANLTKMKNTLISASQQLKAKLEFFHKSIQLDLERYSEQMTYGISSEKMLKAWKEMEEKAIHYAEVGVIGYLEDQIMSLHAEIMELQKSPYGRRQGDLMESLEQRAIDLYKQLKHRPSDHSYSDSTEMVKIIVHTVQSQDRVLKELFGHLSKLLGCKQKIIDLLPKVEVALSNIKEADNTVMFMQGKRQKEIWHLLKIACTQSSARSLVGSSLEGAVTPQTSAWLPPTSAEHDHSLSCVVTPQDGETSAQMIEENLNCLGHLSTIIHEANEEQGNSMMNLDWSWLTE
Assay: Inhibition of IKK1 (unknown origin)
For each record, write down the corresponding pIC50.
Answers are plain numbers, as −log10 of the molar value.

Example results:
Cc1cc(CN2CCOCC2)ccc1-c1cc2c(-c3ccc(C(N)=O)cc3)ccnc2[nH]1; 6.90
CN(C)Cc1ccc(-c2cc3c(-c4ccc(C(N)=O)cc4)ccnc3[nH]2)cc1; 7.10
Cc1ccc(CN2CCOCC2)cc1-c1cc2c(-c3ccc(C#N)c(C(C)C)c3)ccnc2[nH]1; 5.60
CN(C)CCCNC(=O)c1cccc(-c2cc3c(-c4ccc(C(N)=O)cc4)ccnc3[nH]2)c1; 6.90
COc1ccccc1-c1cc2c(-c3ccc(C(N)=O)c(C4CCCC4)c3)ccnc2[nH]1; 5.60

Would you mind giving pIC50 for every compound in the list below?
1. Cc1ccc(OCCN2CCOCC2)cc1-c1cc2c(-c3ccc(C(N)=O)cc3)ccnc2[nH]1
2. CN(C)CCCNC(=O)c1ccc(-c2cc3c(-c4ccc(C(N)=O)cc4)ccnc3[nH]2)cc1

Ans.
[6.70, 7.10]

// provenance: ChEMBL document CHEMBL4118126
